The reported numbers originate from the Human Domainome abundance scans (Beltran et al. 2025).

Known abundance fitness of a selection of variants
B1: Membrane-associated guanylate kinase, WW and PDZ domain-containing protein 2, residues 601 to 682; numbered along this chain, Q86UL8 (parent)
chain: AELMTLTIVKGAQGFGFTIADSPTGQRVKQILDIQGCPGLCEGDLIVEINQQNVQNLSHTEVVDILKDCPIGSETSLIIHRG

variants of: B1; test: abundance fitness (aPCA) (normalised: wild type 0, dead -1); higher = more abundant; growth selection in yeast, the domain comes from the species named; conditions: Homo sapiens
I'd appreciate a reply containing only the number, no unit.

# annotated cases, reported abundance fitness shown
I71K: -0.117
T24E: 0.024
I31Y: -0.221

For record "V54L" the listed abundance fitness is -0.089

Kindly note the recorded abundance fitness for "C69R" , which is -0.08

Entry "I78T" — recorded abundance fitness = -0.224
